- Target entity: human Siglec-7 on primary human monocyte-derived dendritic cells (human, UniProt Q9Y286 19-467)
- Sequence (Q9Y286 19-467): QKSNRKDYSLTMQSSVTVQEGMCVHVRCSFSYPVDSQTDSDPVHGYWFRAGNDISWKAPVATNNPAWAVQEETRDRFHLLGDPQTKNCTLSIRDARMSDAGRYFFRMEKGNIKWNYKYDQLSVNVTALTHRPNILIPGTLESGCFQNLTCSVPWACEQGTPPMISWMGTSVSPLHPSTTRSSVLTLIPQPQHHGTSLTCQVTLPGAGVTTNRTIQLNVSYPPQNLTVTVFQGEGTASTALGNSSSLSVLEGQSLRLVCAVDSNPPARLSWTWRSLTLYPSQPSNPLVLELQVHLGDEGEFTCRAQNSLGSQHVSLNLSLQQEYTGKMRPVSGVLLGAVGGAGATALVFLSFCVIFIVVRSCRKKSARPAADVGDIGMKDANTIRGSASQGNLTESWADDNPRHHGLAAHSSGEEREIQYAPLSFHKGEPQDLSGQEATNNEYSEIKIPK
- Assay overview: cell-based or functional assay
Listed binders paired with reported Maximal downregulation (% Siglec-7 remaining)
Field: numeric (%). Do not append units.

[[record]]
binder = "S7AB-H8.4 (antibody, V domains shown) VH: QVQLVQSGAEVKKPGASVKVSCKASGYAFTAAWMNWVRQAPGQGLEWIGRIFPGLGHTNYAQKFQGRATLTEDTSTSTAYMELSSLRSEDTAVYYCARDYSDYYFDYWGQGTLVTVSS VL: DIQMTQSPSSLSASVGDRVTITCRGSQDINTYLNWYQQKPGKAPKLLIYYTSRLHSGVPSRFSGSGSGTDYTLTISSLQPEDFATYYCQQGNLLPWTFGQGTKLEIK"
readout_number = 4.5


Kindly consider the entry below.
Maximal downregulation (% Siglec-7 remaining) recorded for this binder, S7AB-H8.18 (antibody, V domains shown) VH: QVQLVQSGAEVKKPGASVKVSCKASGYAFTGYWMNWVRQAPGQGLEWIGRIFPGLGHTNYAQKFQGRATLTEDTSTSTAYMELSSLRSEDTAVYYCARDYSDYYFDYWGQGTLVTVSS VL: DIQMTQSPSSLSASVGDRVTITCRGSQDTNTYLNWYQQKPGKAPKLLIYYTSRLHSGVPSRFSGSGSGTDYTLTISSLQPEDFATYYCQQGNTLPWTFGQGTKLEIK , is 18.9
